Target: PDE6 γ-subunit with a single Cys at position 35, labeled with 3-(bromo acetyl)-7-diethyl aminocoumarine (UniProt P04972)
Test: other fluorescence titration
measure: Kd (nM)
Answers are plain numbers, in nM.

// lookup Kd for human aryl hydrocarbon receptor-interacting protein-like 1 (hAIPL1), full length, His6-tagged (natural protein) MDAALLLNVEGVKKTILHGGTGELPNFITGSRVIFHFRTMKCDEERTVIDDSRQVGQPMHIIIGNMFKLEVWEILLTSMRVHEVAEFWCDTIHTGVYPILSRSLRQMAQGKDPTEWHVHTCGLANMFAYHTLGYEDLDELQKEPQPLVFVIELLQVDAPSDYQRETWNLSNHEKMKAVPVLHGEGNRLFKLGRYEEASSKYQEAIICLRNLQTKEKPWEVQWLKLEKMINTLILNYCQCLLKKEEYYEVLEHTSDILRHHPGIVKAYYVRARAHAEVWNEAEAKADLQKVLELEPSMQKAVRRELRLLENRMAEKQEEERLRCRNMLSQGATQPPAEPPTEPPAQSSTEPPAEPPTAPSAELSAGPPAEPATEPPPSPGHSLQH
990
